Value source: the supplement of paper PMC9254222

Test system: HEK293T (UBE3A T485A transfected, BAR Wnt reporter)
procedure-text: Wnt reporter firefly/Renilla luciferase ratio relative to plate median (fold (linear ratio)); higher = more Wnt/beta-catenin reporter activation
run-conditions: concentration: 10 uM; 24 h
The full ranking holds about 1,100 compounds; the median of “Wnt reporter firefly/Renilla luciferase ratio relative to plate median” is about 1.1, and the highest 2% start at about 1.6. The sample as a whole holds a higher share of the highest values than the screen did.
readout-label: Wnt reporter firefly/Renilla luciferase ratio

| compound | endpoint-value |
| --- | --- |
| CCNc1cccc(C)c1 | 1.05 |
| CCOC(=O)COc1ccc2c(c1)CC(NCC(O)c1cccc(Cl)c1)CC2.Cl (stereo not given) | 1.15 |
| Cc1ccc2ncccc2c1 | 1.29 |
| C[C@@H](Oc1ccc(CNC(=O)c2cccnc2Oc2ccc3c(c2)OCO3)c(F)c1)C(=O)O | 1.13 |
| CC(=O)[C@@]1(O)CC[C@H]2[C@@H]3CCC4=CC(=O)CC[C@]4(C)[C@H]3CC[C@@]21C [17alpha-Hydroxyprogesterone] | 1.03 |
| CC(C)COC(=O)CCCCC(=O)OCC(C)C [Diisobutyl adipate] | 1.28 |
| Cc1ccc(C)c(C)c1 | 0.884 |
| O=C(O)[C@H](O)[C@@H](O)C(=O)O | 0.958 |
| c1ccc2ncccc2c1 | 1.43 |
| CCCCCCCCCCCCCCCCOS(=O)(=O)[O-].[Na+] [Sodium hexyldecyl sulfate] | 0.931 |
| CC(C)(O)c1ccc(CNC(=O)c2cccnc2Oc2ccc(F)cc2)cc1 | 1.22 |
| CCCCc1ccc2c(n1)[C@@H](c1ccc(OC)cc1C[C@H](C)C(=O)[O-])[C@H](C(=O)[O-])[C@H]2c1ccc2c(c1)OCO2.[Na+].[Na+] | 1.18 |
| Oc1ccccc1 | 1.19 |
| C=CCc1ccc(O)c(OC)c1 | 1.19 |
| O=c1c(-c2ccc(O)cc2)coc2cc(O)ccc12 | 1.12 |
| CCCCCCCCO | 1.11 |
| Cc1ccccc1Cl | 1.37 |
| c1ccc2cc3c(ccc4ccccc43)cc2c1 | 1.29 |
| Cc1nc(-c2ccc3c(c2)CCN(CCC2CCC(NC(=O)/C=C/c4ccc(F)cc4)CC2)CC3)no1.Cl (stereo not given) | 0.916 |
| CC(C)(c1cc(Br)c(O)c(Br)c1)c1cc(Br)c(O)c(Br)c1 | 1.03 |
